Each recorded value in this set is attributed to ChEMBL document CHEMBL1141598.

target: Growth hormone secretagogue receptor type 1 (Homo sapiens, UniProt Q92847); experiment: Agonist activity at human GHS receptor expressed in H4 glioma cells assessed as intracellular calcium concentration by FLIPR assay
Sequence (Q92847 whole entry): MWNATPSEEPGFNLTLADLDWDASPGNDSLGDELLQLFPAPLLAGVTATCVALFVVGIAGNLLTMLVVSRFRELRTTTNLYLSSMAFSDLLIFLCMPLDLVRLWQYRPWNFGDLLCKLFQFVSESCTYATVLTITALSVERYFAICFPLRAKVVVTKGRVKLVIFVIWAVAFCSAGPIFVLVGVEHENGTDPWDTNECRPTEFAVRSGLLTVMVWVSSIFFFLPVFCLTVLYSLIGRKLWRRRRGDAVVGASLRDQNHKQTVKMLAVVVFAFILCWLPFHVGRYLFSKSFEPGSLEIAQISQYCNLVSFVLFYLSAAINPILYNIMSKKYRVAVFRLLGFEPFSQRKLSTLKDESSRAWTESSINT
pEC50: −log10 of the molar value.
observable: pEC50

In the examples that follow, each entry is paired with its recorded pEC50.
>>> reportedmeasurement("CC(C)(N)C(=O)N[C@H](COCc1ccccc1)c1nnnn1C(CC#N)COc1ccccc1F (single isomer, unassigned; diastereomer 2)")
7.19
>>> reportedmeasurement("CC(C)(N)C(=O)N[C@H](COCc1ccccc1)c1nnn(CC(C#N)Cc2ccccc2)n1 (mixture of isomers)")
5.61
>>> reportedmeasurement("CC(C)(N)C(=O)N[C@H](COCc1ccccc1)c1nnnn1[C@H](CC#N)COc1ccccc1")
9.40
>>> reportedmeasurement("CC(C)(N)C(=O)N[C@H](COCc1ccccc1)c1nnnn1CC(C#N)Cc1ccccc1 (mixture of isomers)")
7.66
>>> reportedmeasurement("CC(C)(N)C(=O)N[C@H](COCc1ccccc1)c1nnn(C(CC#N)CCc2ccccc2)n1 (single isomer, unassigned; diastereomer 1)")
6.82

P = CC(C)(N)C(=O)N[C@H](COCc1ccccc1)c1nnnn1C(/C=C/c1ccccc1)CC#N (single isomer, unassigned; diastereomer 2)
Q = CC(C)(N)C(=O)N[C@H](COCc1ccccc1)c1nnnn1[C@@H](CC#N)COc1ccccc1O
// compare: P vs Q , metric pEC50, want the smaller Respond with the label that goes with your answer.
P
